Recorded NEFA levels values for a group of sequences are listed next.
Test: Plasma NEFA and 3-HB in C57BL/6 mice
Assay type: in vivo, mouse
Settings: Week 6, 50 mg/kg/week
Experimental: Four groups of five mice each were injected twice a week with 25 mg/kg (totaling 50 mg/kg/week) of ISIS 447114, ISIS 447118, ISIS 447143, or ISIS 447144 for 6 weeks. […] Effect of antisense inhibition of TTC39B on free fatty acid levels Plasma levels of non-esterified fatty acids (NEFA) and 3-hydroxybutyric acid (3-HB), which are the end-products of fatty acid oxidation, were measured using an automated clinical chemistry analyzer (Olympus Clinical Analyzer).
Oligonucleotides are written 5' to 3', each unit as a sugar letter and its base; * is a phosphorothioate linkage, no mark a phosphodiester; rarer units and linkages stand in square brackets, end groups in braces. Plain capitals give the bases only. e = 2'-O-(2-methoxyethyl) (MOE); [5mC] = 5-methylcytosine; d = 2'-deoxy (DNA)
Express the result in mEq/L but write the number alone.

Reference set, count: 3
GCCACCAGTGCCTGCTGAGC (antisense eG*e[5mC]*e[5mC]*eA*e[5mC]*d[5mC]*dA*dG*dT*dG*d[5mC]*d[5mC]*dT*dG*d[5mC]*eT*eG*eA*eG*e[5mC]) [ISIS 447143]
1.30
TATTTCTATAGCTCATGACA (antisense eT*eA*eT*eT*eT*d[5mC]*dT*dA*dT*dA*dG*d[5mC]*dT*d[5mC]*dA*eT*eG*eA*e[5mC]*eA) [ISIS 447144]
1.25
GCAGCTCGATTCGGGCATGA (antisense eG*e[5mC]*eA*eG*e[5mC]*dT*d[5mC]*dG*dA*dT*dT*d[5mC]*dG*dG*dG*e[5mC]*eA*eT*eG*eA) [ISIS 447118]
1.18

Moving on to another sequence below.
Reported NEFA levels ( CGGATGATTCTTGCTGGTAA (antisense e[5mC]*eG*eG*eA*eT*dG*dA*dT*dT*d[5mC]*dT*dT*dG*d[5mC]*dT*eG*eG*eT*eA*eA) [ISIS 447114] ) = 1.52

* * *

Assay: Body and organ weights in C57BL/6 mice
Assay type: in vivo, mouse
Details: 50 mg/kg/week, 6 weeks
Experimental: Four groups of five mice each were injected twice a week with 25 mg/kg (totaling 50 mg/kg/week) of ISIS 447114, ISIS 447118, ISIS 447143, or ISIS 447144 for 6 weeks. A control group of five mice was injected with phosphate buffered saline (PBS) twice a week for 6 weeks. Plasma samples were obtained before the start of treatment, at week 3 and at week 6. […] Body weights of all the mice were measured weekly till the end of the treatment period. […]
Oligonucleotides are written 5' to 3', each unit as a sugar letter and its base; * is a phosphorothioate linkage, no mark a phosphodiester; rarer units and linkages stand in square brackets, end groups in braces. Plain capitals give the bases only. e = 2'-O-(2-methoxyethyl) (MOE); [5mC] = 5-methylcytosine; d = 2'-deoxy (DNA)
Catalogue of Kidney weight after treatment values
Note: unit g is implicit; provide only the numeric part.

Example sequences with recorded Kidney weight after treatment:
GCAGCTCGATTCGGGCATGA (antisense eG*e[5mC]*eA*eG*e[5mC]*dT*d[5mC]*dG*dA*dT*dT*d[5mC]*dG*dG*dG*e[5mC]*eA*eT*eG*eA) [ISIS 447118]
0.32
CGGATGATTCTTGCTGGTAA (antisense e[5mC]*eG*eG*eA*eT*dG*dA*dT*dT*d[5mC]*dT*dT*dG*d[5mC]*dT*eG*eG*eT*eA*eA) [ISIS 447114]
0.33

Measured Kidney weight after treatment, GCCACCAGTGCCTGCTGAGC (antisense eG*e[5mC]*e[5mC]*eA*e[5mC]*d[5mC]*dA*dG*dT*dG*d[5mC]*d[5mC]*dT*dG*d[5mC]*eT*eG*eA*eG*e[5mC]) [ISIS 447143] : 0.34

Query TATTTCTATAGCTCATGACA (antisense eT*eA*eT*eT*eT*d[5mC]*dT*dA*dT*dA*dG*d[5mC]*dT*d[5mC]*dA*eT*eG*eA*e[5mC]*eA) [ISIS 447144] yields Kidney weight after treatment of 0.34

* * *

Listed below: percent inhibition of TTC39A mRNA values for each entry.
tested on: murine TTC39A mRNA; assay: Dose-dependent antisense inhibition of murine TTC39A in b.END cells; format: cell-based, mouse; details: 140.0 nM, ~16 h
Oligonucleotides are written 5' to 3', each unit as a sugar letter and its base; * is a phosphorothioate linkage, no mark a phosphodiester; rarer units and linkages stand in square brackets, end groups in braces. Plain capitals give the bases only. e = 2'-O-(2-methoxyethyl) (MOE); [5mC] = 5-methylcytosine; d = 2'-deoxy (DNA)
Please state the figure in %; there is no need to write the unit.

Sample records with percent inhibition of TTC39A mRNA:
GCATGTAGAGAACTTCCAGG (eG*e[5mC]*eA*eT*eG*dT*dA*dG*dA*dG*dA*dA*d[5mC]*dT*dT*e[5mC]*e[5mC]*eA*eG*eG; antisense) [ISIS 474382]
80
TCCTTGCTCAGCAGGTCGGC (eT*e[5mC]*e[5mC]*eT*eT*dG*d[5mC]*dT*d[5mC]*dA*dG*d[5mC]*dA*dG*dG*eT*e[5mC]*eG*eG*e[5mC]; antisense) [ISIS 474366]
80
CGCCTGGACTTCCGGATAGC (e[5mC]*eG*e[5mC]*e[5mC]*eT*dG*dG*dA*d[5mC]*dT*dT*d[5mC]*d[5mC]*dG*dG*eA*eT*eA*eG*e[5mC]; antisense) [ISIS 474369]
82
TCGGTGCCTCTGACACAGCG (eT*e[5mC]*eG*eG*eT*dG*d[5mC]*d[5mC]*dT*d[5mC]*dT*dG*dA*d[5mC]*dA*e[5mC]*eA*eG*e[5mC]*eG; antisense) [ISIS 474474]
87

Next item in the queue.
So for AGTTGGGACCCAGAAGGCCT (eA*eG*eT*eT*eG*dG*dG*dA*d[5mC]*d[5mC]*d[5mC]*dA*dG*dA*dA*eG*eG*e[5mC]*e[5mC]*eT; antisense) [ISIS 474497] , the logged percent inhibition of TTC39A mRNA turned out to be 77

* * *

// percent inhibition of TTC39C mRNA lookup, one value per entry
tested on: murine TTC39C mRNA; experiment: Dose-dependent antisense inhibition of murine TTC39C in mouse primary hepatocytes; type: cell-based; settings: 8000.0 nM, electroporation, ~16 h
Oligonucleotides are written 5' to 3', each unit as a sugar letter and its base; * is a phosphorothioate linkage, no mark a phosphodiester; rarer units and linkages stand in square brackets, end groups in braces. Plain capitals give the bases only. e = 2'-O-(2-methoxyethyl) (MOE); [5mC] = 5-methylcytosine; d = 2'-deoxy (DNA)
Numeric only. Scale: %

percent inhibition of TTC39C mRNA for murine TTC39C mRNA with input ISIS 474592: 5-10-5 MOE gapmer antisense oligonucleotide targeting murine TTC39C (antisense eG*eA*eA*eG*e[5mC]*dA*dT*dA*dT*dT*dG*dA*dT*dG*d[5mC]*e[5mC]*eA*eG*e[5mC]*e[5mC]) equals 92

Readout percent inhibition of TTC39C mRNA for ISIS 474521: 5-10-5 MOE gapmer antisense oligonucleotide targeting murine TTC39C (antisense eG*eG*e[5mC]*eT*eT*dT*d[5mC]*d[5mC]*dT*dA*dA*dG*dG*dA*dT*e[5mC]*e[5mC]*eA*e[5mC]*e[5mC]) , test system murine TTC39C mRNA, was 97

Measured on murine TTC39C mRNA, ISIS 474629: 5-10-5 MOE gapmer antisense oligonucleotide targeting murine TTC39C (antisense eG*eA*eT*e[5mC]*eA*d[5mC]*dT*dG*d[5mC]*d[5mC]*dG*dT*d[5mC]*d[5mC]*dA*eA*eA*eG*e[5mC]*eA) has a documented percent inhibition of TTC39C mRNA of 66

I looked up ISIS 474666: 5-10-5 MOE gapmer antisense oligonucleotide targeting murine TTC39C (antisense e[5mC]*eA*eA*eT*e[5mC]*dA*dT*dG*d[5mC]*dT*dG*d[5mC]*dA*d[5mC]*d[5mC]*eA*eG*e[5mC]*e[5mC]*eT) and its percent inhibition of TTC39C mRNA for murine TTC39C mRNA was 95

* * *

tested on: murine TTC39C mRNA; assay: Antisense inhibition of mouse TTC39C in mouse primary hepatocytes, single dose; format: cell-based; conditions: 8,000 nM antisense oligonucleotide, electroporation, approximately 24 hours, TTC39C mRNA by real-time PCR (RTS3266), relative to untreated control cells
Oligonucleotides are written 5' to 3', each unit as a sugar letter and its base; * is a phosphorothioate linkage, no mark a phosphodiester; rarer units and linkages stand in square brackets, end groups in braces. Plain capitals give the bases only. e = 2'-O-(2-methoxyethyl) (MOE); [5mC] = 5-methylcytosine; d = 2'-deoxy (DNA)
readout: % inhibition (%)
Give a bare numeral; the unit % is implied.

Sample answers from the record:
ISIS 474613: 5-10-5 MOE gapmer antisense oligonucleotide targeting murine TTC39C (antisense eT*eG*e[5mC]*eT*eT*dT*dA*dA*dT*d[5mC]*d[5mC]*dA*dA*d[5mC]*dG*eA*e[5mC]*eA*eG*eA)
90
ISIS 474540: 5-10-5 MOE gapmer antisense oligonucleotide targeting murine TTC39C (antisense e[5mC]*e[5mC]*eA*e[5mC]*eT*dG*dG*dG*dA*dG*dT*dT*dT*dA*dT*e[5mC]*eA*e[5mC]*eT*eG)
98
ISIS 474589: 5-10-5 MOE gapmer antisense oligonucleotide targeting murine TTC39C (antisense eT*e[5mC]*e[5mC]*eG*eA*dA*dA*dT*d[5mC]*dG*d[5mC]*dT*d[5mC]*dA*dG*e[5mC]*e[5mC]*eT*eG*e[5mC])
100

Note: attention shifts to another entry.
Given the substance ISIS 474601: 5-10-5 MOE gapmer antisense oligonucleotide targeting murine TTC39C (antisense eG*eG*e[5mC]*e[5mC]*eA*dT*dA*dT*d[5mC]*d[5mC]*dA*dA*dA*dG*d[5mC]*eT*e[5mC]*eA*e[5mC]*eA) and test system murine TTC39C mRNA, the measured % inhibition is 91
